Data provenance is PubChem BioAssay.

- tested-system: Calmodulin-1 (Homo sapiens) (UniProt P0DP23)
- assay-overview: CALM1 binders on microarrays, EGTA buffer, profiling panel, biochemical, small-molecule microarray, Cy5-labelled CALM1 (AID 1111);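 also: labelled calmodulin applied in Tris saline Tween buffer holding calcium plus EGTA and DTT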
- measurement-setup: Cy5-CALM1 binding fluorescence, higher = more signal
Reported values of composite z-score for individual entries
Quick one: just the number, no unit, thanks!

Worked examples follow.
COc1ccc(CCNC(=O)[C@@]2(Sc3ccc(C)cc3)CC(=O)N(C(C)C)[C@@H]2c2ccc(CO)cc2I)cc1 :: -0.434
C=CCOC(=O)[C@H]1[C@@H]2C(=O)O[C@@H](c3ccccc3)[C@@H](c3ccccc3)N2[C@@H](c2ccc(OCCOC(=O)[C@H]3C[C@H]4C(=O)N[C@@H](CCCCNC(C)=O)C(=O)N4[C@H]3c3cccc(OCCO)c3)cc2)[C@]12C(=O)Nc1ccccc12 :: 2.53
COc1cc(C(O)C2C=CC3C(=O)NC(=O)C3N2Nc2ccccn2)cc(OC)c1OC (stereo not given) :: -0.0338
C=C(CCCC)C(=O)CC[C@@H](OC(=O)c1ccccc1-c1ccccc1C(=O)O)c1ccc(OCCO)cc1 :: -0.487

# get_value(readout='composite z-score', item= CCOC(=O)C1=C[C@@H](C(C)(C)C)N(S(=O)(=O)c2ccc(C)cc2)[C@H]1c1ccc(F)cc1 )
1.49

====

- assay-overview: small-molecule microarray binders of probe aShh, primary screen, biochemical, biotinylated probe, 635/667 nm fluorescence (AID 1114);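 also: probe is biotin-labelled aShh protein from a stem cell growth factor screen; measures binding of labelled protein to compounds printed on the slide; score merges feature fluorescence at 667 nm with signal-to-noise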
- measurement-setup: higher = more signal
Label met when composite z-score is at or above -0.05; anything below gets not met.

Worked cases, answers included:
O=C(NCCN1CCOCC1)C1N=C(c2ccc(OCCCO)cc2)N(c2ccccc2)O1 (stereo unspecified) :: met
COCCOC(=O)N1C(=O)[C@@]2(c3cc(C#Cc4ccc(OC)cc4)ccc31)[C@H](c1ccc(O)cc1)N1[C@H](c3ccccc3)[C@H](c3ccccc3)OC(=O)[C@H]1[C@@H]2C(=O)N1CCc2cc(OC)c(OC)cc2C1 :: not met
COc1ccccc1CN1C(=O)c2ccccc2[C@@H](C(=O)NC2CC2)[C@@H]1c1ccc(CO)cc1 :: met
C#C[C@H](O[Si](C#Cc1ccc(Oc2ccccc2)cc1)(C(C)C)C(C)C)c1ccccc1 :: not met
CC(=O)NCCCC[C@@H]1NC(=O)[C@@H]2C[C@H](C(=O)NCCCCCNC(=O)CS)[C@H](c3cccc(OCCO)c3)N2C1=O :: not met

Reported composite z-score at or above -0.05? C=C(COC)C(=O)CC[C@@H](OC(C)=O)c1ccc(CO)o1
not met

Ok, now CC[C@@H]1C=C(C(=O)O)[C@H](c2ccc(Br)cc2)N1S(=O)(=O)c1ccc(C)cc1
not met

Try this molecule next: CCN(CC)c1ccc(N2CC=CC34O[C@@H]5C=CCCOC(=O)C5[C@H]3C(=O)N(CCCCCCO)[C@@H]4C2=O)cc1 (stereo partly specified)
not met

Now try COCCOC(=O)N1C(=O)[C@@]2(c3cc(C#Cc4ccc(OC)cc4)ccc31)[C@H](c1ccccc1OCCO)N1[C@H](c3ccccc3)[C@H](c3ccccc3)OC(=O)[C@H]1[C@@H]2C(=O)NC[C@H](O)c1ccccc1 .
met

Now consider COC(=O)[C@@]1(Cc2ccc(OC)cc2)[C@H]2c3cc(C(=O)N4CCCC4)n(Cc4ccc(C)c(F)c4F)c3C[C@H]2CN1C(=O)c1ccccc1 and answer again.
not met

And what about the molecule C=CCOC(=O)[C@H]1[C@@H]2C(=O)O[C@@H](c3ccccc3)[C@@H](c3ccccc3)N2[C@@H](c2ccc(OCCOC(=O)[C@H]3C[C@H]4C(=O)N[C@@H](CCCC[N+](C)(C)C)C(=O)N4[C@H]3c3ccc(O)cc3)cc2)[C@]12C(=O)Nc1ccc(I)cc12 ?
met

One more molecule: CO[C@H]1O[C@H](CO)[C@@H](OC(=O)Nc2cccc(F)c2)[C@H](OC(=O)Nc2ccccc2)[C@@H]1OC(=O)Nc1ccccc1
met

Moving on to the next molecule: Cc1nc2cc(Br)ccc2c(=O)o1
not met

O=C1C2C=CC(C(O)c3cc(C(F)(F)F)cc(C(F)(F)F)c3)N(n3cnnc3)C2C(=O)N1Cc1ccccc1 (stereo unspecified) ?
met

Same lookup for C=CCC(OC(C)=O)[C@@H]1[C@@H](N(Cc2cc3ccccc3o2)C(=O)c2cccc3ccccc23)c2cc(OCCCO)ccc2N1C(=O)c1ccc(-c2ccccc2)cc1 (stereo partly specified) , please.
not met

Item: COc1cc2c(cc1O)C(C1CC1)N(Cc1sc3ccccc3c1Cl)CC2 (stereo unspecified)
met

====

- assay-overview: binders of probe aFSTL3 on microarray, primary screen, stem cell growth factor project, biochemical, small-molecule microarray, fluorescence 635/667 (AID 1064);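 also: measures binding of the biotinylated anti-FSTL3 antibody to printed compounds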
- measurement-setup: higher = more signal
value-type: composite z-score
Format: numeric value only, no unit, no commentary.

COc1ccc([Si](C)(C)[C@H]2[C@H](CC(=O)N3Cc4ccccc4C[C@H]3CO)O[C@@]3(C(=O)N(Cc4cccc(N5CCC5=O)c4)c4ccccc43)[C@@H]2C)cc1 :: -0.26
CCCCCN1CC=CC23O[C@@H]4/C=C\CCC(C)OC(=O)C4[C@H]2C(=O)N(C(C)CO)[C@@H]3C1=O (some centres not stated) :: -0.411
C=CCOC(=O)[C@H]1[C@@H]2C(=O)O[C@@H](c3ccccc3)[C@@H](c3ccccc3)N2[C@@H](c2ccc(OCCOC(=O)[C@H]3C[C@H]4C(=O)N[C@@H](CCCCNC(C)=O)C(=O)N4[C@H]3c3cccc(OCCO)c3)cc2)[C@]12C(=O)Nc1ccccc12 :: -0.0212
O=C1C2C=CC(C(O)c3cccc4ccccc34)N(Nc3ccccc3F)C2C(=O)N1c1ccccc1 (configuration not stated) :: 0.154
CC(=O)NCCCC[C@@H]1NC(=O)[C@H]2C[C@@H](C(=O)NCCCCCCNC(=O)CS)[C@@H](c3ccc(O)cc3)N2C1=O :: 0.993

# get_value(readout='composite z-score', item= CN1C(=O)C2C=CC(C(O)c3ccccc3)N(N(c3ccccc3)c3ccccc3)C2C1=O (configuration not stated) )
-0.034

Now consider CC1(C)C2C=C(C(O)C3C=CC4C(=O)NC(=O)C4N3Nc3ccc(Cl)cc3Cl)C[C@@H]1C2 (some centres not stated) .
1.16

How about O=C1c2ccccc2[C@](Cc2ccccc2I)(C(=O)NCC(F)(F)F)[C@H](c2ccc(CO)cc2)N1Cc1ccccc1Cl ?
-0.266

====

- assay-overview: basal RPMI8226 mitochondrial membrane potential changes, profiling panel, cell-based, JC-1 fluorescence, 24 h, 100 nL compound (AID 1169); also: test concentration not given here
- measurement-setup: RPMI8226 myeloma, JC-1 mitochondrial potential fluorescence, higher = more signal
value-type: z-score
Output spec: single numeric token, no unit.

Below, 5 molecules whose answers are already recorded.
CC(C)=CCN[C@H](CO)c1ccccc1 :: -0.0908
O=C(c1ccccc1)N1C(=O)[C@]2(COC(c3ccc(OCCCO)cc3)=N2)Cc2ccccc21 :: -1.26
O=C1C2C=CC(C(O)c3cc(C(F)(F)F)cc(C(F)(F)F)c3)N(n3cnnc3)C2C(=O)N1Cc1ccccc1 (stereo unspecified) :: 0.11
CCOC(=O)C[C@H]1[C@H](OC(=O)c2ccccc2-c2ccccc2)[C@@H](NC(=O)CC(C)C)c2cc(OCCCO)ccc2N1C(=O)Cc1ccc(OC)cc1 :: -0.0827
O=C1N[C@@H](Cc2ccccc2)C(=O)N2[C@@H]1C[C@@H](C(=O)O)[C@H]2c1cccc(OCCO)c1 :: 0.448

What measured z-score goes with C=C[C@H](C)[C@@H](OC(=O)Nc1ccc(OC)cc1)c1ccc(O)c2ccccc12 ?
-1.01

====

- tested-system: Focal adhesion kinase 1 (Homo sapiens) (UniProt Q05397)
- Sequence (Q05397 whole entry, looked up): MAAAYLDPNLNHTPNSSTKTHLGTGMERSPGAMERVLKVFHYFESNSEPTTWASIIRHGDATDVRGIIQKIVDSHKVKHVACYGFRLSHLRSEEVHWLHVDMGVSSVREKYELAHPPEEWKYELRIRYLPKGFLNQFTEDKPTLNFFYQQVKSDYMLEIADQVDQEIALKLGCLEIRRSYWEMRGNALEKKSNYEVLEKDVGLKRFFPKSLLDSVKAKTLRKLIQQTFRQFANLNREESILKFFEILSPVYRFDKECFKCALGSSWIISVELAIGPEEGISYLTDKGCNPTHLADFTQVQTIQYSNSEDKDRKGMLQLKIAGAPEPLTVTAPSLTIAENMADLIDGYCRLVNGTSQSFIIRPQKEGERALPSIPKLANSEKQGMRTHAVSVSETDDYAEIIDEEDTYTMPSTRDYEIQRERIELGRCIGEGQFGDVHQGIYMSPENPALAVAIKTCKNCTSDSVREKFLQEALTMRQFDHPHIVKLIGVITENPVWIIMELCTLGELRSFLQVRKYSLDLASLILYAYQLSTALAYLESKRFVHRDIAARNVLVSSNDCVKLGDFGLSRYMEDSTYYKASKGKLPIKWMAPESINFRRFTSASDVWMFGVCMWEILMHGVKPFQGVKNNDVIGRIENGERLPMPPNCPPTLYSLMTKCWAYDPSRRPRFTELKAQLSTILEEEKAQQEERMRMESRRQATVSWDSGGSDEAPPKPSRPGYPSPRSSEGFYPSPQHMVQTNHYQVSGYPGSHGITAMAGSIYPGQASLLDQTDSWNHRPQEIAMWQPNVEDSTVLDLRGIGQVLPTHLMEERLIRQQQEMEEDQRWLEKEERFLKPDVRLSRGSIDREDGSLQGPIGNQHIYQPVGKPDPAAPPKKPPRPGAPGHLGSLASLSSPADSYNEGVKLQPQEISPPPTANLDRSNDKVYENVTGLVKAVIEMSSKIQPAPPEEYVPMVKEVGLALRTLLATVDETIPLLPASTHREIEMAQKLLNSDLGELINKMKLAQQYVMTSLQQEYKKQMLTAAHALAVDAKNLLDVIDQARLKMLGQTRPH
- assay-overview: small-molecule microarray binders of FAK, primary screen, biochemical, 635/667 nm fluorescence, BSA, DTT (AID 1130);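 also: composite of spot emission at 667 nm and signal to noise over triplicate slides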
- measurement-setup: PTK2 binding, 635 nm fluorescence, higher = more signal
As shown below, each of these compounds has a reported composite z-score value.

# count of solved cases: 3
COC(=O)[C@]1(CCC(=O)OC(C)(C)C)N=C(c2ccc(OCCCO)cc2)O[C@@H]1c1ccccc1CN=[N+]=[N-] :: 0.348
CC(C)[Si](C#Cc1ccc(Oc2ccccc2)cc1)(O[Si](C#Cc1ccc(Oc2ccccc2)cc1)(C(C)C)C(C)C)C(C)C :: 0.0273
COC(=O)[C@@]1(Cc2ccc(OC)cc2)[C@H]2c3cc(C(=O)N4CCCC4)n(Cc4ccc(O)c(OC)c4)c3C[C@H]2CN1C(=O)c1ccccc1 :: 0.264

Switching to the query record.
What composite z-score appears in the records for this compound with Focal adhesion kinase 1 (Homo sapiens) (UniProt Q05397)? C=C(/C(=C/C[C@H](OC(C)=O)c1ccc(CO)o1)c1cc(C(=O)OC)ccc1OC)C(C)C
-0.0384

====

- assay-overview: mitochondrial membrane potential change in A549 cells, profiling panel, cell-based, JC-1 fluorescence, basal, 24 h, 100 nL (AID 1138);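 also: A549 lung adenocarcinoma cells under basal conditions with no added stimulus; test concentration not given here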
- measurement-setup: higher = more signal
value-type: z-score
Format: numeric value only, no unit, no commentary.

Solved cases below.
C=CCC(OC(C)=O)[C@@H]1[C@@H](N(Cc2ccc(-c3ccccc3)cc2)C(=O)Cc2ccc(OC)cc2)c2cc(OCCCO)ccc2N1C(=O)Cc1ccc2ccccc2c1 (stereo partly drawn) :: 0.112
O=C1c2ccccc2[C@](Cc2ccccc2I)(C(=O)NCCN2CCOCC2)[C@H](c2ccc(CO)cc2)N1C1CCCCC1 :: 1.34

Now consider the entry below.
Report z-score for COC(=O)c1c(CC[C@@H](CO)NC(=O)NCCn2cc(C3(O)CCCC3)nn2)oc(C(C)=O)c1C(=O)OC please.
-0.415
